Data provenance is patent US20210138025A1.

- Test system: S. aureus (MRSA SAP0017)
- Type: cell-based, Staphylococcus aureus
- setupConditions: SPOT synthesized peptide, ~12.5 μM, clinical MRSA strain, crystal violet assay
- Procedure: Methods of assessment of anti-biofilm activity: MRSA S. aureus strain SAP0017 biofilm formation was initially analyzed using a static abiotic solid surface assay as described elsewhere (de la Fuente-Nunez et al., 2012) and shown graphically in FIG. 2. […] Peptide was added at time zero (prior to adding the diluted, overnight cultures) in varying concentrations, and the amount biofilm formation was recorded after 22-46 h incubation for most bacteria. […]
Non-standard residues stand in square brackets, D forms with d. No end group written: not given here. hArg = N=C(N)NCCCC[C@H](N)C(=O)O; Dab = NCC[C@H](N)C(=O)O
parameter: % Residual MRSA biofilm growth compared to untreated control (%)

substance	obsValue
VRLIVAVRIWHarR (VRLIVAVRIW[hArg]R-NH2; N-terminus assumed; SMILES CC[C@H](C)[C@H](NC(=O)[C@H](CCCNC(=N)N)NC(=O)[C@@H](NC(=O)[C@H](C)NC(=O)[C@@H](NC(=O)[C@@H](NC(=O)[C@H](CC(C)C)NC(=O)[C@H](CCCNC(=N)N)NC(=O)[C@@H](N)C(C)C)[C@@H](C)CC)C(C)C)C(C)C)C(=O)N[C@@H](Cc1c[nH]c2ccccc12)C(=O)N[C@@H](CCCCNC(=N)N)C(=O)N[C@@H](CCCNC(=N)N)C(N)=O) [Peptide 1018-r35]	33
DabRLIVAVRIWRR ([Dab]RLIVAVRIWRR-NH2; N-terminus assumed; SMILES CC[C@H](C)[C@H](NC(=O)[C@H](CCCNC(=N)N)NC(=O)[C@@H](NC(=O)[C@H](C)NC(=O)[C@@H](NC(=O)[C@@H](NC(=O)[C@H](CC(C)C)NC(=O)[C@H](CCCNC(=N)N)NC(=O)[C@@H](N)CCN)[C@@H](C)CC)C(C)C)C(C)C)C(=O)N[C@@H](Cc1c[nH]c2ccccc12)C(=O)N[C@@H](CCCNC(=N)N)C(=O)N[C@@H](CCCNC(=N)N)C(N)=O) [Peptide 1018-k13]	59

====

- System: S. aureus (Sau)
- Format: cell-based
- setupConditions: Sau
No end group written: not given here.
parameter: MIC S. aureus

> print(dat)
                                   substance       measuredon      parameter   obsvalue
 1  WKKVQWLKRLLL-NH2 [Peptide 3003, WKKVQWLKRLLL]  S. aureus (Sau)  MIC S. aureus   16 µg/mL
 2  LWQLWLKLKLKG-NH2 [Peptide 3013, LWQLWLKLKLKG]  S. aureus (Sau)  MIC S. aureus  >64 µg/mL
 3  VIKWLLKILRAI-NH2 [Peptide 3001, VIKWLLKILRAI]  S. aureus (Sau)  MIC S. aureus    2 µg/mL
 4  LIVIQLLKKWWK-NH2 [Peptide 3020, LIVIQLLKKWWK]  S. aureus (Sau)  MIC S. aureus   16 µg/mL
 5  ILVRWIRWRIQW-NH2 [Peptide 3002, ILVRWIRWRIQW]  S. aureus (Sau)  MIC S. aureus    8 µg/mL
 6  AVAKWALKLWKQ-NH2 [Peptide 3009, AVAKWALKLWKQ]  S. aureus (Sau)  MIC S. aureus  >64 µg/mL
 7  WQGWAKIWVVRI-NH2 [Peptide 3019, WQGWAKIWVVRI]  S. aureus (Sau)  MIC S. aureus    4 µg/mL
 8  IKIIWKALGQVI-NH2 [Peptide 3024, IKIIWKALGQVI]  S. aureus (Sau)  MIC S. aureus   16 µg/mL
 9  LAGLIVKWAGVR-NH2 [Peptide 3017, LAGLIVKWAGVR]  S. aureus (Sau)  MIC S. aureus  >64 µg/mL
10  RVKAIKWRKIVV-NH2 [Peptide 3012, RVKAIKWRKIVV]  S. aureus (Sau)  MIC S. aureus  >64 µg/mL
